# TARGET SYSTEM: SIX1-Q177R homeodomain (human, UniProt Q15475 108-198, Q177R)
# Sequence: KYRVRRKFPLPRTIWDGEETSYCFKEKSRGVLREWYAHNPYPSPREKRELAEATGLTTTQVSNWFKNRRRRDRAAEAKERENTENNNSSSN
# TEST NAME: universal protein binding microarray; Universal all-10-mer PBM (8x60K, AMADID 030236), 300 nM GST-tagged protein, Alexa Fluor 488 anti-GST; buffer, salt, pH and temperature not stated (as in Berger); high values mean tight binding
# ASSAY CONDITIONS: protein: ivt; tags: N-terminal GST; dsDNA, one strand shown
In all, about 33,000 sequences were measured (“e-score”: median about -0.05, highest 2% from about 0.38 on). What follows is part of a selection rich in the highest values, with near analogues and random picks from the rest.
ENDPOINT NAME: binding signal (E-score)
Answers are plain numbers, in E-score.

Completed entries (count: 6):
PRIMARY SEQUENCE	ENDPOINT NAME	UNIT ABBREVIATION	DATA VALUE
CGATACTC	binding signal	E-score	0.211
CACACCTC	binding signal	E-score	0.403
ACACGCTG	binding signal	E-score	0.389
ACACCTAT	binding signal	E-score	0.448
ACCCCACG	binding signal	E-score	0.267
GACACGCA	binding signal	E-score	0.416

For every item in the list below, what is its measured binding signal?
1. GACAACAC
2. AACACAAC
3. ACCCCTAT
4. ACCGCACA
5. TAGTATCA

[0.386, 0.176, 0.172, 0.232, 0.221]

For every item in the list below, what is its measured binding signal?
1. AACCGTGT
2. AAGTAGTG
3. AGATGGTG
4. AGGGGTAC

[0.379, 0.27, 0.273, 0.273]

For every item in the list below, what is its measured binding signal?
1. AGACCCCC
2. AGCCGGTG
3. GACACGCC
4. GACACAAC
5. TGTTATAA
6. AGTGGTGC
7. CGACAACA
8. CGTCACAC

[0.214, 0.282, 0.444, 0.207, 0.267, 0.245, 0.245, 0.288]

For every item in the list below, what is its measured binding signal?
1. CCCCAGGA
2. AGCTCGTG
3. ACACGCTC

1. 0.173
2. 0.244
3. 0.384

###

Provide the reported binding signal of each item.
# TARGET SYSTEM: SIX1-Q177R homeodomain (human, UniProt Q15475 108-198, Q177R)
# Sequence: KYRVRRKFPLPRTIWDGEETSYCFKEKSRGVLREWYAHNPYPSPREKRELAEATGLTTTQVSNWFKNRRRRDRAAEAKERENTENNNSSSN
# TEST NAME: universal protein binding microarray; Universal all-10-mer PBM (8x60K, AMADID 030236), 300 nM GST-tagged protein, Alexa Fluor 488 anti-GST; buffer, salt, pH and temperature not stated (as in Berger); high values mean tight binding
# ASSAY CONDITIONS: protein: ivt; tags: N-terminal GST; dsDNA, one strand shown
Over roughly 33,000 sequences, “e-score” has its median near -0.05; the highest 2% begin near 0.38. The sample as a whole holds a higher share of the highest values than the screen did.
One number for each entry, in E-score.

Completed entries (count: 8):
PRIMARY SEQUENCE	binding signal / E-score
GCACGACC	0.255
CCCTTCTA	0.177
ACCTCCCA	0.191
TCGATACA	0.198
CCCGTAGG	0.178
CACCGCCC	0.3
ATGGGTGC	0.154
ACGACACA	0.273

For every item in the list below, what is its measured binding signal?
1. ACGACACG
2. ACACGACA
3. ACACGAAA
4. CACGTCAC
5. GCATAAAC
6. ATCCGACA

1: 0.426; 2: 0.404; 3: 0.302; 4: 0.16; 5: 0.184; 6: 0.238

For every item in the list below, what is its measured binding signal?
1. TAGAGTAA
2. ACTATGCG

[0.199, 0.17]

For every item in the list below, what is its measured binding signal?
1. GAGTGTAA
2. GGGAGTCA
3. CACTTGCC
4. AGGAGGTG
5. CCGCGCGG
6. ACACCATA

1: 0.42; 2: 0.221; 3: 0.227; 4: 0.286; 5: 0.172; 6: 0.459

For every item in the list below, what is its measured binding signal?
1. CCACGACA
2. AAGACACA
3. CCCTGAGG
4. ACTCCATG

1. 0.27
2. 0.174
3. 0.177
4. 0.212

For every item in the list below, what is its measured binding signal?
1. ATACCATC
2. ACTCCATA
3. CGGGATCA
4. CCGACACC
5. ACACCATC
6. CACCAGGA
7. CCGACACG

[0.151, 0.201, 0.269, 0.488, 0.467, 0.25, 0.418]

For every item in the list below, what is its measured binding signal?
1. GCACCATA
2. ACATACAC
3. TAGTGTAA
4. ACACGACT
5. ACTAGCAC
6. ACCCCATC

1. 0.174
2. 0.421
3. 0.408
4. 0.411
5. 0.194
6. 0.245
